pKi values recorded for PIM1 (Homo sapiens, UniProt P11309)
Value format note: pKi is -log10 of concentration (mol/L); just state the number.

Example entries and their recorded answers appear below.
smiles.string	measured.attribute	value
Nc1sc(-c2c(F)cccc2Cl)nc1C(=O)Nc1cnccc1N1CCC[C@H](N)C1	pKi	10.49
Nc1sc(-c2cc(F)ccc2F)nc1C(=O)Nc1cnccc1N1CCC[C@H](N)C1	pKi	10.31
Nc1sc(-c2ncccc2F)nc1C(=O)Nc1cnccc1N1CCC[C@H](N)C1	pKi	10.30

Which value of pKi has been reported for Nc1sc(-c2ccccn2)nc1C(=O)Nc1cnccc1N1CCC[C@H](N)C1 in the records?
10.08

* * *

target: BaF3 PIM2 cells (Homo sapiens, UniProt Q9P1W9); assay: BaF3 PIM2 cell proliferation (Cell Titer Glo); format: cell-based; conditions: incubated overnight; read-out: Prolif BaF3_PIM2 (IC50)
Sequence (Q9P1W9 whole entry, change not shown): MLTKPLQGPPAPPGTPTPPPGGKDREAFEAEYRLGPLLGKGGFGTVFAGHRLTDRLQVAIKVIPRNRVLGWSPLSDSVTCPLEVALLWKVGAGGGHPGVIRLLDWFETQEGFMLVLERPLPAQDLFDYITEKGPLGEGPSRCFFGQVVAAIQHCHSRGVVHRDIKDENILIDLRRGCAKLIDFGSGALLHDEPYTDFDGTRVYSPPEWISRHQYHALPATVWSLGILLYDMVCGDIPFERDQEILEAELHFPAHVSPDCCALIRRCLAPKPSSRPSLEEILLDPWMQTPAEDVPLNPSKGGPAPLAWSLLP
Catalogue of compounds with associated GI50

Here's what some known entries look like.
compound	value
Nc1sc(-c2cn[nH]c2)nc1C(=O)Nc1cnccc1N1CCC[C@H](N)C1	> 20 µM
C=C(C)c1nc(C(=O)Nc2cnccc2N2CCC[C@H](N)C2)c(N)s1	> 20 µM
Cc1ccc(-c2nc(C(=O)Nc3cnccc3N3CCC[C@H](N)C3)c(N)s2)cc1	> 5 µM
Nc1sc(-c2ccc3nccn3c2)nc1C(=O)Nc1cnccc1N1CCC[C@H](N)C1	> 20 µM
Cc1cccc(C)c1-c1nc(C(=O)Nc2cnccc2N2CCC[C@H](N)C2)c(N)s1	> 20 µM

Reported GI50, compound Nc1sc(-c2cnc3ccccn23)nc1C(=O)Nc1cnccc1N1CCC[C@H](N)C1 : ____
> 20 µM

Can you share its GI50? I mean this compound: CC(C)(C)c1nc(C(=O)Nc2cnccc2N2CCC[C@H](N)C2)c(N)s1
> 20 µM

Requested read-out: GI50. Entry: Nc1sc(-c2cc(Br)ccc2F)nc1C(=O)Nc1cnccc1N1CCC[C@H](N)C1
> 2.5 µM

Need GI50 of Nc1sc(-c2c(F)cccc2F)nc1C(=O)Nc1cnccc1N1CCCCC1 , thanks.
> 20 µM

Which GI50 is listed for Nc1sc(-c2c(F)cccc2F)nc1C(=O)Nc1cnccc1Cl ?
> 20 µM

Query (compound): Nc1sc(C2CCCNC2)nc1C(=O)Nc1cnccc1N1CCCC(N)C1 (stereo not drawn) ; field requested: GI50
> 20 µM

Look up GI50 for this compound: Cc1nc(C(=O)Nc2cnccc2N2CCC[C@H](N)C2)c(N)s1
> 20 µM
